- system tested: PI 3-kinase gamma (Homo sapiens, UniProt P48736)
- Sequence (P48736 whole entry): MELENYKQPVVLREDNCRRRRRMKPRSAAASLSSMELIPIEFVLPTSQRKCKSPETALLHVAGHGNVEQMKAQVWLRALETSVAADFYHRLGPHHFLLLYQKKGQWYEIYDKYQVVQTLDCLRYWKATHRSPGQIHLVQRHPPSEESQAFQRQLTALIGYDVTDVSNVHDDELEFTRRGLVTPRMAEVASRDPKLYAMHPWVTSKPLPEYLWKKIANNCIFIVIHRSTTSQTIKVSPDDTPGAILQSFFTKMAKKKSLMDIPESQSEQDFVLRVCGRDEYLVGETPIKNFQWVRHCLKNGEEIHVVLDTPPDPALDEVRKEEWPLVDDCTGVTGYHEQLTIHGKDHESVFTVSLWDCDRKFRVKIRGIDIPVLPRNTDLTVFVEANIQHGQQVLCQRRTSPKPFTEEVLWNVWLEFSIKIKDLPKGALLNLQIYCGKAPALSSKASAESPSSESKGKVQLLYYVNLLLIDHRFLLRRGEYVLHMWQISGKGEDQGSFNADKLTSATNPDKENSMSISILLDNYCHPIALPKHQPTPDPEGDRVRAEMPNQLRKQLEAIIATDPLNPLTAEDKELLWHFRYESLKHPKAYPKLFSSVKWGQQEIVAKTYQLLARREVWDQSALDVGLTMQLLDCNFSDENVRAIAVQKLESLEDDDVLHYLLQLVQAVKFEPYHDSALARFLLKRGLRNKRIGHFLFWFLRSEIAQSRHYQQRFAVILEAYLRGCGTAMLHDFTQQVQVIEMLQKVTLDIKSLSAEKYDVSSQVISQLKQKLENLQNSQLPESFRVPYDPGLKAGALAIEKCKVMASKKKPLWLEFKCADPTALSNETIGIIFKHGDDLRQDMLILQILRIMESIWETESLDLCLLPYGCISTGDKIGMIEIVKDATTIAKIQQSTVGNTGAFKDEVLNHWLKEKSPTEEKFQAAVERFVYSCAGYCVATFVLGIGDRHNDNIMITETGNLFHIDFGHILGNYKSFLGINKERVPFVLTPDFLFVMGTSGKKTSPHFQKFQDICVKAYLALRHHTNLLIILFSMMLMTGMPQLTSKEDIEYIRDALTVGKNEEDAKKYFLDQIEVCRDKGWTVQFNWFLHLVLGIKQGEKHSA
- test: Cellular U937 AKT assay K2 (HTRF)
- Format: cell-based
- experimental setup: U937 cells, K2 format; read-out: Assay K2 PI3Kγ IC50
Examples of molecules with documented IC50 follow.
parameter measured: IC50 (nM)

• Cc1ncc(-c2nc(-c3cc(S(=O)(=O)N[C@H]4C[C@H](O)C4)ccc3C)cnc2N)s1 [Example 43b] = 180
• Cc1ccc(S(=O)(=O)N2CC(F)(F)C2)cc1-c1cnc(N)c(-n2cncn2)n1 [Example 127.4] = 1490
• Cc1ccc(S(=O)(=O)NCC(C)(C)O)cc1-c1cnc(N)c(-c2cnc(C3CC3)s2)n1 [Example 21] = 90
• Cc1ncc(-c2nc(-c3cc(S(=O)(=O)N4CC(CO)C4)ccc3C)cnc2N)s1 [Example 45.8] = 317

* * *

- system tested: PI 3-kinase alpha (Homo sapiens, UniProt P42336)
- Sequence (P42336 whole entry): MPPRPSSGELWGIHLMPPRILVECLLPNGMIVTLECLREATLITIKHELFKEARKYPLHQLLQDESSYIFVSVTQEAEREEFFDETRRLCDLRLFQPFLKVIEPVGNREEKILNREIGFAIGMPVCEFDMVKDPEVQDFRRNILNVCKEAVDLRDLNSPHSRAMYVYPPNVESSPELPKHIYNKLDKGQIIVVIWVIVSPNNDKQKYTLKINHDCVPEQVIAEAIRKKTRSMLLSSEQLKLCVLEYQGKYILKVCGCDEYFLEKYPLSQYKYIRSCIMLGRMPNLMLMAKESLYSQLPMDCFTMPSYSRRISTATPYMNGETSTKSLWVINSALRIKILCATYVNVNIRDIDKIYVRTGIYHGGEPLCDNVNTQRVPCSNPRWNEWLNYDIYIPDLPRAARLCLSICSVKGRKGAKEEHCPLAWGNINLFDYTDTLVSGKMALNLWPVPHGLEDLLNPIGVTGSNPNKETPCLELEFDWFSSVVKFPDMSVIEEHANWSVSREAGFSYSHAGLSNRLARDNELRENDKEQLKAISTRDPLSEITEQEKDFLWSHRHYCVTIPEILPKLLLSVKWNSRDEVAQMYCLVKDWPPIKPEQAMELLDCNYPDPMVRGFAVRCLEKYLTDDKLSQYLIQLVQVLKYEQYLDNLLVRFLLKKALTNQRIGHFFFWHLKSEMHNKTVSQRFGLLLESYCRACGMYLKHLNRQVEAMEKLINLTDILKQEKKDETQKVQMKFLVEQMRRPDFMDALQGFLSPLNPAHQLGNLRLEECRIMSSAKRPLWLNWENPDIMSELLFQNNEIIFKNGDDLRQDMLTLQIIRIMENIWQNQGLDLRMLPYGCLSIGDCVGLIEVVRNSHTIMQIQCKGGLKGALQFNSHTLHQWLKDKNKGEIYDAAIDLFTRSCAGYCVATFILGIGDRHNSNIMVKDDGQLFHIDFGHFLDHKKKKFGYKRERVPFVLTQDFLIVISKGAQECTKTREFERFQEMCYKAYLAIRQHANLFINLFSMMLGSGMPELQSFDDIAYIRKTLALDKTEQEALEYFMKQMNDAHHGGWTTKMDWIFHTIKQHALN
- Sequence (Q63787 whole entry partner): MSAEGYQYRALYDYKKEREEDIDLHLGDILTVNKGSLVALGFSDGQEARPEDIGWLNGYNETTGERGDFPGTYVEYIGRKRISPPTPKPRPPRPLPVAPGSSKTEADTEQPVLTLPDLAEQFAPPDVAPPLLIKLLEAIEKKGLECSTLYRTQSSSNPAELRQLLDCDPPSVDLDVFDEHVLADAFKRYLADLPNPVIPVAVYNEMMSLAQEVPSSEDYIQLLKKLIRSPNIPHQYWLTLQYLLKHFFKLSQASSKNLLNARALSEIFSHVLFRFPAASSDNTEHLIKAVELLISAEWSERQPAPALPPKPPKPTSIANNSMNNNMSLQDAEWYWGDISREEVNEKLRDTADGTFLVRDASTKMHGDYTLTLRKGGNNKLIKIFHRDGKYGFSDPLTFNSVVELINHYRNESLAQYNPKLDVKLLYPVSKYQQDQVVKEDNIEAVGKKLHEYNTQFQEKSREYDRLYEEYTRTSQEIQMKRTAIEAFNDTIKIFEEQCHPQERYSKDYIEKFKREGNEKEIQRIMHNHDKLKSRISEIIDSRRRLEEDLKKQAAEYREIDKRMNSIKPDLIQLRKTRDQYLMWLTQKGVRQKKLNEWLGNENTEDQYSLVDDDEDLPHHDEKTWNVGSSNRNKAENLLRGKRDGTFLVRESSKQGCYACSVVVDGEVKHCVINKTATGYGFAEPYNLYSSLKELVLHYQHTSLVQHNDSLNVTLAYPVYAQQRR
- test: Cellular assay H1, p-Akt (S473) in Rat-1 cells, Surefire format
- Assay type: cell-based
- experimental setup: non-asterisked data: version H1 (Surefire format), Rat-1 cells; read-out: Assay H PI3Kα IC50
parameter measured: log10 IC50 (log10 of the value in µM)

• Cc1cc(-c2nc(-c3cc(S(=O)(=O)NC4CCC(C)(O)CC4)ccc3C)cnc2N)ccn1 (centres unmarked) = 0.93
• Cc1noc(-c2nc(-c3cc(S(=O)(=O)NCCC(C)(C)O)ccc3C)cnc2N)n1 = 0.02
• Cc1ccc(S(=O)(=O)NCCC(C)(C)O)cc1-c1cnc(N)c(-c2cnn(C(C)C)c2)n1 = 0.45
• Cc1ccc(S(=O)(=O)NCCC(C)(C)O)cc1-c1cnc(N)c(-c2ccncc2F)n1 = 0.40
• Cc1ccc(S(=O)(=O)NCCC(C)(C)O)cc1-c1cnc(N)c(-c2ccc(N3CCOCC3)nc2)n1 = 0.71
• Cc1ccc(S(=O)(=O)NCCC(C)(C)O)cc1-c1cnc(N)c(-c2cccnc2F)n1 = 0.43
• Cc1ccc(S(=O)(=O)NC2CC3(CC(O)C3)C2)cc1-c1cnc(N)c(-n2cncn2)n1 (single isomer, unassigned) [Example 70b] = 0.61
• Cc1ccc(S(=O)(=O)N[C@H]2CC[C@@](C)(O)CC2)cc1-c1cnc(N)c(-n2cncn2)n1 [Example 69b] = 0.82
• Cc1ncc(-c2nc(-c3cc(S(=O)(=O)NCCCO)c(F)cc3C)cnc2N)s1 = 0.03
• Cc1ccc(S(=O)(=O)NCCC(C)(C)O)cc1-c1cnc(N)c(-n2cnc(C(C)C)n2)n1 = 0.00
• CCN1CCC[C@@H]1CNS(=O)(=O)c1ccc(C)c(-c2cnc(N)c(-n3cncn3)n2)c1 = 0.82
• Cc1ccc(S(=O)(=O)NCCC(C)(C)O)cc1-c1cnc(N)c(-c2ccncc2)n1 = -0.33
• Cc1ccc(S(=O)(=O)N[C@H]2C[C@@H](O)C2)cc1-c1cnc(N)c(-n2cncn2)n1 [Example 71b] = 0.84
• Cc1cc(F)c(S(=O)(=O)NCCCO)cc1-c1cnc(N)c(-c2cnn(C)c2)n1 = 0.73
• Cc1ccc(S(=O)(=O)NCCC(C)(C)O)cc1-c1cnc(N)c(-c2cn(C)nc2C)n1 = 0.67

* * *

- test: Microsomal clearance assay (M)
- experimental setup: intrinsic clearance in rat liver microsomes
parameter measured: Assay M RLM CI(int)

• Cc1ccc(S(=O)(=O)NCCC(C)(C)O)cc1-c1cnc(N)c(-n2ccnc2)n1 = 56 µL/min/mg
• Cc1cc(-c2nc(-c3cc(S(=O)(=O)NCC4CCOC4)ccc3C)cnc2N)ccn1 (centres unmarked) = 97 µL/min/mg
• COc1cc(-c2nc(-c3cc(S(=O)(=O)NCCC(C)(C)O)ccc3C)cnc2N)ccn1 = 81 µL/min/mg
• Cc1ccc(S(=O)(=O)NCCC(C)(C)O)cc1-c1cnc(N)c(-c2cccnc2)n1 = 118 µL/min/mg
• Cc1cc(F)c(S(=O)(=O)NCCCO)cc1-c1cnc(N)c(-c2cnn(C)c2)n1 = 17 µL/min/mg
• Cc1ccc(S(=O)(=O)NCC2(C)COC2)cc1-c1cnc(N)c(-c2cnn(C)c2)n1 = 26 µL/min/mg
• Cc1cc(-c2nc(-c3cc(S(=O)(=O)NCC4(O)CCC4)ccc3C)cnc2N)ccn1 = 79 µL/min/mg
• Cc1ncc(-c2nc(-c3cc(S(=O)(=O)NCC4CCCCO4)ccc3C)cnc2N)s1 (centres unmarked) = 502 µL/min/mg
